system: A549; assay: NCI tumour cell line growth inhibition, 48 h
Calls of active or inactive are those of the source. No stated cut-off is given here; in the data, active = GI50 up to about 1.1 µM and inactive = higher.
Classes used: active, inactive

{"columns": ["Compound", "Assigned Class"],
 "data": [
  ["O=C1C=CC(=O)[C@H]2C3C=CC(C4C3C3(Cl)C(Cl)=C(Cl)[C@]4(Cl)C3(Cl)Cl)[C@@H]12 (stereo not given in full)", "inactive"],
  ["CSc1c(C(N)=S)c(N)nn1-c1ccccc1", "inactive"],
  ["Cc1[nH]n(-c2nc3c(c(=O)[nH]2)CCCC3)c(=O)c1CCO", "inactive"],
  ["Cc1cc(=O)n(-c2cc3cccccc-3n2)[nH]1", "inactive"],
  ["C=C(Cl)/C(=C\\Cl)CCC(Br)C(C)C (stereo not given)", "inactive"],
  ["COC(=O)[C@]12CC[C@H]3CN(C(=O)OCc4ccccc4)[C@H]([C@H]31)[C@H](C(=O)OCC[Si](C)(C)C)N2S(=O)(=O)c1ccc(C)cc1", "inactive"],
  ["COc1cccc2c1C1(O)C2CCCC12OCCCO2 (stereo not given)", "inactive"],
  ["CCOC(=O)c1c(C)n(-c2ccc(C)cc2)c2c1cc(O)c1[nH]c3c(c12)CCCC3", "inactive"],
  ["O=C1Nc2ccc(S(=O)(=O)O)cc2/C1=N/Nc1ccccc1[N+](=O)[O-]", "inactive"],
  ["O=C(CC(=O)N1N=C(c2ccccc2)C(/N=N/c2ccc(C(=O)O)cc2)C1=O)Nc1ccc(F)cc1 (stereo not given)", "inactive"],
  ["O=C1OC(O)c2cc3c(cc21)OCO3 (stereo not given)", "inactive"],
  ["COc1ccc(C(O)C(c2ccc(OCc3ccccc3)cc2)c2ccc(OCc3ccccc3)cc2)cc1 (stereo not given)", "inactive"],
  ["N#Cc1nc(-c2ccco2)oc1N", "inactive"],
  ["CCO[C@H]1O[C@@H]2OC3(C)CCC4[C@H](C)CCC([C@H]1C)[C@]42OO3 (stereo not given in full)", "inactive"],
  ["N#Cc1c(N)nc(SCc2ccccc2)c(C#N)c1-c1ccc(O)cc1", "inactive"],
  ["O=C(CO)CC(=O)C(=O)Nc1cccc(C(F)(F)F)c1", "inactive"],
  ["CCN(CC)C(=O)Cn1c(-c2ccccc2)cc2ccccc21", "inactive"],
  ["O=C(O)CCc1nc(-c2ccccc2-n2cccc2)no1", "inactive"],
  ["CC(=O)Nc1c(C)cc(OCC(=O)O)cc1C", "inactive"],
  ["CC12N=NNC1C(=O)NC2=O (stereo not given)", "inactive"],
  ["CCOC(=O)N(CC)c1c(C(F)(F)F)cc(-c2ccccc2)[nH]c1=O", "inactive"],
  ["Nc1nc2c3nc(Nc4ccccc4)sc3nc(=S)n2c2sc(Nc3ccccc3)nc12", "inactive"],
  ["O=c1c2ccccc2[se]n1-c1cccnc1", "inactive"],
  ["O=c1[nH]c(=O)n(C2OC(CO)C(O)C2O)cc1OCCc1ccccc1 (stereo not given)", "inactive"],
  ["CC(C)CC1CC2C(=O)N(c3ccccc3)C(=O)C2c2[nH]c3ccccc3c21 (stereo not given)", "inactive"],
  ["COc1ccc(/C=C2\\NC(=S)N(CN3CCCCC3)C2=O)cc1", "inactive"],
  ["O=C1c2ccccc2C(=O)c2c1ccc1c3ccccc3n(-c3ccccc3)c21", "inactive"],
  ["COC(=O)C1Cc2c(n(C)c3ccccc23)C(CCC(=O)O)N1Cc1ccccc1 (stereo not given)", "inactive"],
  ["Nc1nc2[nH]cnc2c(=O)[nH]1", "inactive"],
  ["CC(=O)OC(C)c1cc2c(s1)C(=O)c1scc(C(C)OC(C)=O)c1C2=O (stereo not given)", "active"],
  ["CC(C)CC(NC=O)C(=O)NC(Cc1ccccc1)NC(=O)CNC(=O)C(C)NC(=O)OC(C)(C)C (stereo not given)", "inactive"],
  ["CCCC/C=C1\\CCC(CN2CCCCC2)C1=O (stereo not given)", "inactive"],
  ["CN(C)CCc1ccnc2nc(-c3ccc4ccccc4c3)cn12", "inactive"],
  ["Cc1cc2c(C)nn(Cc3ccc(Cl)cc3Cl)c2c(C#N)c1C", "inactive"],
  ["O=C(O)/C=C/c1c[nH]c(=O)[nH]c1=O", "inactive"],
  ["FC(F)(F)c1nc2cc(SSc3cc4nc(C(F)(F)F)[nH]c4cc3Cl)c(Cl)cc2[nH]1", "inactive"],
  ["Cc1cc(Cl)nc(Nc2nc3ccccc3[nH]2)n1", "inactive"],
  ["CN(O)C(=S)c1ccccc1", "inactive"],
  ["COc1ccc2oc(=N)c(C(=O)Nc3cccc4ccccc34)cc2c1", "inactive"],
  ["O=S(=O)(Nc1ccccc1S(=O)(=O)c1ccccc1)c1ccccc1", "inactive"],
  ["Cc1c2cnccc2c(C)c2c1c1ccccc1n2CCCCCCCl", "inactive"],
  ["O=C1Nc2ccccc2/C1=N/NC(=S)Nc1cccc(Cl)c1", "inactive"],
  ["CCCOC(=O)C1C2CCC(O2)C1C(=O)O (stereo not given)", "inactive"],
  ["CCCCCCC(O)C(O)CCC(O)C1CCC(CCCCC(O)CC2=CC(C)OC2=O)O1 (stereo not given)", "inactive"],
  ["CCOC(=O)c1[nH]cc(C)c1-c1c[nH]c2ccccc12", "inactive"]
]}
